Tested on: quinolone and phenazine production of P. aeruginosa PAO1
Assay: Quinolone and phenazine inhibition in P. aeruginosa PAO1 cultures, LC-MS/MS of supernatants
Type: cell-based, Pseudomonas aeruginosa
Conditions: Pseudomonas aeruginosa, PAO1, 24 h, read-out: average IC50 for production of all major quorum sensing signals, PQS and the chain length congeners of HHQ
Metric: IC50

Lookup: Write down IC50 measured for item Nc1ccccc1C(=O)CCl [Formula (2), 2′-amino-1-chloro-acetophenone]
Found: < 10 µM
